- Tested on: Danio rerio Tg(wt1b:EGFP) embryo, pronephros
- assayNotes: glomerular width (mean of left and right), fold change vs DMSO control; higher = wider glomerulus
- testParameters: 25 µM; exposure: 24-48 hpf
Structures can show the parent of a compound that is named as a salt.
In this section, each of the compounds is paired with its reported glomerular width.
Lab note: record just the number, no unit beside it.

NC(=O)c1cccnc1 [Nicotinamide] = 1.02

Q: Find the recorded glomerular width belonging to NS(=O)(=O)Cc1noc2ccccc12 [Zonisamide] and report it.
Ans: 1

Q: Same for CO[C@@]1(NC(=O)CSCC#N)C(=O)N2C(C(=O)O)=C(CSc3nnnn3C)CS[C@@H]21 [Cefmetazole sodium salt]
Ans: 1

Q: Now the same for CCN(CC)CCN[C@@H](C(=O)OCCC(C)C)c1ccccc1 [Camylofine chlorhydrate]
Ans: 1.02

Q: Then this compound: CC(C)CN(C[C@@H](O)[C@H](Cc1ccccc1)NC(=O)O[C@H]1CO[C@H]2OCC[C@H]21)S(=O)(=O)c1ccc(N)cc1
Ans: 0.976

Q: Same for COc1c(N2C[C@@H]3CCCN[C@@H]3C2)c(F)cc2c(=O)c(C(=O)O)cn(C3CC3)c12
Ans: 0.971

Q: Request: COc1ccccc1OCC(O)CN1CCN(CC(=O)Nc2c(C)cccc2C)CC1 (stereo not given)
Ans: 1.02

---

- Test system: Danio rerio Tg(wt1b:EGFP) embryo, pronephros
- assayNotes: fraction of imaged embryos annotated as normal kidney; higher = less nephrotoxic; extreme values may be limits of the assay
- testParameters: 25 µM; exposure: 24-48 hpf
Counter-ions that a name gives are not always drawn.
Recorded fraction of imaged embryos annotated as normal kidney by entry
Response field accepts a number only; no unit should be typed.

Reference set, count: 3
Nc1ccc(C(=O)O)c(O)c1 = 0.833
CC(CN(C)C)CN1c2ccccc2Sc2ccccc21 (stereo unspecified) [Trimeprazine tartrate] = 0.833
C=CC(N)CCC(=O)O (stereo unspecified) [Vigabatrin hydrochloride] = 0.917

Q: I am curious: what fraction of imaged embryos annotated as normal kidney value has been reported for Cc1c(C)c2c(c(C)c1O)CCC(C)(C(=O)O)O2 (stereo unspecified) ?
Ans: 0.833

Q: What would you report for CCN(CC)CCNc1ccc(CO)c2sc3ccccc3c(=O)c12 ?
Ans: 0.833

Q: What would you report for CC1Cc2ccccc2N1NC(=O)c1ccc(Cl)c(S(N)(=O)=O)c1 (stereo unspecified) [Indapamide] ?
Ans: 0.909

Q: Can you check CC(COc1ccccc1)NC(C)C(O)c1ccc(O)cc1 (stereo unspecified) [Isoxsuprine hydrochloride] next?
Ans: 1

Q: Next entry: C[C@@](Cc1ccc(O)c(O)c1)(NN)C(=O)O
Ans: 0.833

Q: Entry to check: CN1CCN(c2c(F)cc3c(=O)c(C(=O)O)cn4c3c2SCC4)CC1
Ans: 1

Q: # repeat for CNC[C@H](O)[C@@H](O)[C@H](O)[C@H](O)CO
Ans: 0.909

Q: Also need CC(=O)Oc1cc(C(C)C)c(OCCN(C)C)cc1C [Moxisylyte hydrochoride] , thanks.
Ans: 0.917

Q: Next compound: CCC1NC(=O)c2cc(S(N)(=O)=O)c(Cl)cc2N1 (stereo unspecified)
Ans: 0.909

Q: Also need CCCCOc1cc(C(=O)NCCN(CC)CC)c2ccccc2n1 , thanks.
Ans: 0.917

Q: Continue with Cc1cc(O)c(C(=O)N[C@@H](C(=O)N[C@@H]2C(=O)N3C(C(=O)O)=C(CSc4nnnn4C)CS[C@H]23)c2ccc(O)cc2)cn1 [Cefpiramide]
Ans: 0.833

Q: Queued: CC(=O)Nc1ccc(OCC(O)CNC(C)C)cc1 (stereo unspecified)
Ans: 0.833

Q: Queued: Cn1cnc([N+](=O)[O-])c1Sc1ncnc2[nH]cnc12
Ans: 0.833
